experiment_summary: activity across pH 3-9
stated_conditions: glycan gained; control: wild type
parameter_measured: other: optimal pH of activity

protein	parameter_measured	recorded_measurement
CTendo45: G63T (protein) parent chain: MHLSQLALPLLLAAGAHAQGAQGTGRTTRYWDCCKPSCAWPGKSNALQPVQTCNAQDQPLNDGGNTRSGCDSGGSAFMCSNQSPWALNETLSYGWAAVRIAGQSEFNWCCACYELTFTSGPVAGKKMIVQATNTGGDLGSNHFDIAIPGGGVGIFNACTQQYGAPPNGWGERYGGIRSRSECDSFPEALKAGCYWRFDWFLGADNPDVSFKQVACPAAITAKSKCVRQRDVIDQTPTGPEIVPTWTP	other: optimal pH of activity	no change
CTendo45: W169S (protein) parent chain: MHLSQLALPLLLAAGAHAQGAQGTGRTTRYWDCCKPSCAWPGKSNALQPVQTCNAQDQPLNDGGNTRSGCDSGGSAFMCSNQSPWALNETLSYGWAAVRIAGQSEFNWCCACYELTFTSGPVAGKKMIVQATNTGGDLGSNHFDIAIPGGGVGIFNACTQQYGAPPNGWGERYGGIRSRSECDSFPEALKAGCYWRFDWFLGADNPDVSFKQVACPAAITAKSKCVRQRDVIDQTPTGPEIVPTWTP	other: optimal pH of activity	no change
